- Test Method Notes: Example 4 side effect parameters in BxPC-3 bearing nude mice
- Type: in vivo
- Recorded Conditions: female, Balb/c nude, mouse, in vivo, iv; i.v. once in three days, BxPC-3 bearing mice; read-out: MTD (maximum tolerated dose)

{"columns": ["Compound", "Unit Tag", "MTD at 14 days"],
 "data": [
  ["Nc1ccn([C@@H]2O[C@H](CO)[C@@H](O)C2(F)F)c(=O)n1 [GEM, Gemcitabine, reference compound]", "mg/kg", 120]
]}
